- experimentNotes: reduction of polyQ htt aggregates in cells – imaging, exon1htt(103Q)mCFP cells, high-content imaging, primary screen (AID 483);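 note: compound exposure lasted 3 days before fixation; percent of the per-plate median nuclei count of sample wells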
- conditionSet: exon1htt(103Q)mCFP cell line, aggregate imaging, at 2 µM; measured here: cell count, toxicity
observationType: nuclei count (%)
Note: unit % is implicit; provide only the numeric part.

Study these solved cases before continuing.
• CC(C)OC(=O)CSc1nnnn1-c1ccc2c(c1)OCCO2 = 111
• COC(=O)c1c(NC(=O)c2ccc(S(=O)(=O)N3CCOCC3)cc2)sc2c1CCN(C)C2 = 117
• COc1cccc(-n2c(SCC(=O)OC(C)C)nnc2-c2cccnc2)c1 = 96.8
• COc1ccc2nc(NC(=O)C(NS(=O)(=O)c3cccs3)C(C)C)sc2c1 (stereo not given) = 97.8

Quick one: nuclei count for "CC(=O)Nc1ccc(NC2=CC(=O)CC(C)(C)C2)cc1" ? 107

"COc1ccc(C)cc1-n1nnnc1SCC(=O)NC(=O)NCc1ccco1" ? 65.2

* * *

- systemTested: Voltage-gated potassium channel subunit beta-2 (Rattus norvegicus) (UniProt P62483)
- Sequence (P62483 whole entry, looked up): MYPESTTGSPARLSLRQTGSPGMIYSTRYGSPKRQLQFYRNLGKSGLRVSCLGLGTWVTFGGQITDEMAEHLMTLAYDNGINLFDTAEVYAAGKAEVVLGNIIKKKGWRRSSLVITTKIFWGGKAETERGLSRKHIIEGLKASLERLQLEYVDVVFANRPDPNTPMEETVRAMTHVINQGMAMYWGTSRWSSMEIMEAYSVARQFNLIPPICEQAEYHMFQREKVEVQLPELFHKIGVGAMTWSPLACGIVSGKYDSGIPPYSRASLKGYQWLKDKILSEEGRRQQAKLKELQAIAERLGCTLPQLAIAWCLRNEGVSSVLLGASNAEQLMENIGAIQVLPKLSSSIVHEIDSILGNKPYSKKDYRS
- experimentNotes: inhibitors of rat Kvbeta2 reductase activity – biochemical, NADPH fluorescence, primary screen (AID 622);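 note: slope of raw intensity against log time taken from 70 to 1610 s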
- conditionSet: recombinant KvBeta, 4-cyanobenzaldehyde reduction, at 10 µM, stronger effect = higher value
Active and inactive are the calls of the source.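 Rule for the calls: active = fluorescence slope higher than the sample average by over 3 SD (cut at about -0.22 in these data, passing the limit was not always enough); inactive = the rest.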
observationType: fluorescence slope

Study these solved cases before continuing.
* CCOC(=O)C1=C(C)Nc2ncnn2C1c1cc(OC)ccc1OC (stereo unspecified) | -0.236 (inactive)
* Cc1cc(NS(=O)(=O)c2ccc(NC(=O)C(C)N3C(=O)c4ccccc4C3=O)cc2)nc(C)n1 (stereo unspecified) | -0.557 (inactive)
* CCC1Oc2ccccc2N(CC(=O)Nc2ccc(OC)cc2OC)C1=O (stereo unspecified) | -0.533 (inactive)

Pending compound:
Quick one: fluorescence slope for "COCCCNC(=O)CCc1nc(-c2ccccc2Cl)no1" ? -0.556 (inactive)

* * *

- experimentNotes: inhibitors of TNFa-induced NFkB p65 translocation, primary screen, imaging, HUVEC, MLSMR starter and 10KST1 sets (AID 438);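 note: compound added about 3h40 before a 20 min TNFalpha stimulation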
- conditionSet: HUVEC TNFa-induced p65 nuclear translocation; measured here: nuclei count (cytotoxicity indicator), at 2.08 µM
Values of cell count greater than or equal to 500 map to criterion met; values below map to criterion not met.

Solved entries (count: 10):
* CCCCN(CC)S(=O)(=O)N1CCC(C(=O)NCc2ccc(F)cc2)CC1 | criterion met
* COc1ccc(-c2n[nH]c(C)c2-c2ccc(Cl)cc2)c(O)c1OC | criterion not met
* O=C(Cn1nnc2c(cnn2-c2ccc(F)cc2)c1=O)c1ccccc1F | criterion not met
* CC1(C)C2CCC1(CS(=O)(=O)NCc1ccc(C(=O)O)cc1)C(=O)C2 (stereo not drawn) | criterion met
* CCN(CC)C(=O)CN(c1cc(Cl)ccc1OC)S(C)(=O)=O | criterion met
* c1ccc2c(NC3CCCC3)nnc(NC3CCCC3)c2c1 | criterion met
* O=C(CCSc1ccccc1)N1CCN(C(=O)c2ccco2)CC1 | criterion not met
* Cn1c(=O)c(NC(=O)c2ccccc2)c2n(c1=S)CCCCC2 | criterion not met
* O=c1cc(COn2nnc3ccc(C(F)(F)F)cc32)nc2sccn12 | criterion not met
* O=C(Nc1ccncc1)c1cncc(Br)c1 | criterion met

cell count >= 500 for "CCn1cc(C(=O)Nc2cc3c(cc2NC(C)=O)OCCO3)c(=O)c2ccc(C)nc21" ? criterion not met

Cc1cc2c(c(=O)n1CCc1ccccc1)C(C(C)C)C(C#N)=C(N)O2 (stereo not drawn) ? criterion met

N#CCSc1nc2c(c(C3CC=CCC3)c1C#N)CCC2 (stereo not drawn) ? criterion not met

"O=C(CSc1nnc(-c2cccnc2)o1)Nc1ccccn1" ? criterion not met

"Cc1ccc(S(=O)(=O)N(C)Cc2cc3ccccc3[nH]c2=O)cc1" ? criterion met

CCC1CCCCN1S(=O)(=O)c1ccc(C(=O)Nc2nnc(-c3cccs3)o2)cc1 (stereo not drawn) ? criterion not met

* * *

- experimentNotes: blockers of RIG-like receptor reporter activation – cell-based, Sendai virus stimulus, luciferase, 10K MLSCN set, TLR/RLR signaling modifier project, primary screen (AID 602276);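 note: firefly luciferase from ISG56 promoter only with Renilla not read in this screen; 0% = Sendai virus plus DMSO and 100% = medium plus DMSO without virus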
- conditionSet: HEK293 RL24 IRF3 luciferase reporter, at 10 µM, stronger effect = higher value
Values of inhibition greater than or equal to 10% map to rule met; values below map to rule not met.

Solved entries (count: 4):
* CCc1nc(N)nc(N)c1-c1ccc(Cl)cc1 | rule met
* CC(=O)c1cccc(NC(=O)N2CCCC2C(=O)NCc2ccc(C)cc2)c1 (stereo not given) | rule met
* CCC(=O)O[C@]1(C(=O)CCl)[C@@H](C)C[C@H]2[C@@H]3CCC4=CC(=O)C=C[C@]4(C)[C@@]3(F)[C@@H](O)C[C@@]21C | rule not met
* CC(C)(C)c1ccccc1NC(=O)c1cccnc1 | rule met

Alright, here's another molecule for you.
inhibition >= 10% for CCCCC(CC)C(=O)Nc1ccccc1C#N (stereo not given) ? rule met

* * *

- experimentNotes: TLR3 IRF3 reporter activation blockers – cell-based, poly I:C stimulus, luciferase, 10K MLSCN set, primary screen (AID 602277)
- conditionSet: HEK293-TLR3 RL24 IRF3 luciferase reporter, at 10 µM, stronger effect = higher value
observationType: inhibition (%)
Note: unit % is implicit; provide only the numeric part.

* CCOC(=O)c1c(NC(=O)CSc2nnc(-c3ccc(OC)cc3)o2)sc2c1CCC2 | 5.8
* Cc1ccccc1C(=O)N1CCC(C(=O)Nc2ccc(S(=O)(=O)N3CCCC3)cc2)CC1 | 16.9
* CC(Sc1nnc(-c2cc3ccccc3o2)n1-c1ccccc1)C(=O)O (stereo unspecified) | 39.8
* NC(=O)C1(N2CCCCC2)CCN(Cc2ccccc2Cl)CC1 | 19.9
* Cn1c(Cc2ccccc2)nnc1SCC(=O)NC1CCCCC1 | 0.751
* COc1cc(NC(=O)Cc2cccs2)ccc1-n1cnnn1 | 21.1
* CCOC(=O)C1=C(C)NC(SC(C)=O)=NC1c1ccc(OC(C)=O)c(OC)c1 (stereo unspecified) | 1.43
* Nc1nc(-c2ccccc2Br)cs1 | -27

Quick one: inhibition for Cc1ccc(NC2=NC(c3ccccc3)n3c(nc(C)cc3=O)N2)cc1 (stereo unspecified) ? 19.7

"COc1ccc(CN(C)CC(=O)c2c(N)n(Cc3ccccc3)c(=O)n(C)c2=O)c(OC)c1" ? 24.3

"NC(=O)c1oc2ccc(Cl)cc2c1NC(=O)CN1CCOCC1" ? 1.98

* * *

- experimentNotes: TLR3 IRF3 reporter activation blockers – cell-based, poly I:C stimulus, luciferase, 10K MLSCN set, primary screen (AID 602277)
- conditionSet: HEK293-TLR3 RL24 IRF3 luciferase reporter, at 10 µM, stronger effect = higher value
Measured inhibition, listed per entry for reference.
Note: unit % is implicit; provide only the numeric part.

Study these solved cases before continuing.
• Cc1nc(NCCNC(=O)c2ccco2)c2c(C)c(C)sc2n1 = 6.83
• CCOc1cc(C2c3c(n[nH]c3C)C(=O)N2c2ccc(Br)cc2)ccc1O (stereo unspecified) = 30
• CCC1CCCCN1S(=O)(=O)c1ccc(C(=O)Nc2nnc(-c3cccs3)o2)cc1 (stereo unspecified) = 16.6
• COc1ccccc1N(CC(=O)NCc1ccccc1)S(C)(=O)=O = 14
• COc1ccccc1OCc1ccc(C(=O)OCC2CCCO2)o1 (stereo unspecified) = -24.7

Quick one: inhibition for "CCCCOC(=O)Nc1nc2ccc(OC)cc2s1" ? -118

* * *

- experimentNotes: inhibitors of TNFa-induced NFkB p65 translocation, primary screen, imaging, HUVEC, MLSMR starter and 10KST1 sets (AID 438);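 note: compound added about 3h40 before a 20 min TNFalpha stimulation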;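 for inhibition: signal is the nuclear over cytoplasmic p65 intensity ratio per well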
- conditionSet: HUVEC TNFa-induced p65 nuclear translocation; at 2 µM, stronger effect = higher value, 0% TNFa-plus-vehicle, 100% no-TNFa wells
Measured inhibition, listed per entry for reference.
Note: unit % is implicit; provide only the numeric part.

Study these solved cases before continuing.
- CCOc1ccccc1NC(=O)CSc1c(C)n[nH]c1C: -2
- O=C(O)c1ccc(-n2nnnc2Oc2ccccc2C(=O)N2CCOCC2)cc1: -20.3
- Cn1cc(CC(=O)Nc2cccc(C#N)c2)c2ccccc21: -0.7
- CC1=C(C#N)C(c2ccc3ncccc3c2)C(C#N)=C(C)N1: 1.7
- COC(=O)c1ccccc1NC(=O)Nc1cccs1: -11.5

Pending compound:
Quick one: inhibition for "NC(=O)C1(N2CCCCC2)CCN(Cc2ccccc2Cl)CC1" ? 0.3

* * *

Measured cell count, listed per entry for reference.
- experimentNotes: inhibitors of TNFa-induced NFkB p65 translocation, primary screen, imaging, HUVEC, MLSMR starter and 10KST1 sets (AID 438);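 note: compound added about 3h40 before a 20 min TNFalpha stimulation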
- conditionSet: HUVEC TNFa-induced p65 nuclear translocation; measured here: nuclei count (cytotoxicity indicator), at 2.08 µM
Reply with the value as a number alone.

Study these solved cases before continuing.
* O=C(NCc1ccco1)c1cc2c(s1)CSC2 | 473
* CSc1nc(NC(C)(C)C)nc(Oc2ccc(=O)[nH]n2)n1 | 356
* O=C1NC(=O)C2(CCC(C(=O)O)C2)N1 (configuration not stated) | 557
* CC(=O)Nc1cccc(-c2nnc(-c3ccccc3)o2)c1 | 378
* O=c1[nH]c2cccnc2n1Cc1ccco1 | 325
* COc1ccc(N(CC(=O)NC2CCCC2)C(=O)Cn2nnc(-c3ccc(C)cc3)n2)cc1 | 465

Quick one: cell count for "N=c1sc2ccccc2n1-c1ccccc1" ? 402

"CCN(c1ccccc1)S(=O)(=O)c1ccc(F)cc1C" ? 207
